Molecular target: FGFR2 (h) (Homo sapiens, UniProt P21802)
Sequence (P21802 22-821): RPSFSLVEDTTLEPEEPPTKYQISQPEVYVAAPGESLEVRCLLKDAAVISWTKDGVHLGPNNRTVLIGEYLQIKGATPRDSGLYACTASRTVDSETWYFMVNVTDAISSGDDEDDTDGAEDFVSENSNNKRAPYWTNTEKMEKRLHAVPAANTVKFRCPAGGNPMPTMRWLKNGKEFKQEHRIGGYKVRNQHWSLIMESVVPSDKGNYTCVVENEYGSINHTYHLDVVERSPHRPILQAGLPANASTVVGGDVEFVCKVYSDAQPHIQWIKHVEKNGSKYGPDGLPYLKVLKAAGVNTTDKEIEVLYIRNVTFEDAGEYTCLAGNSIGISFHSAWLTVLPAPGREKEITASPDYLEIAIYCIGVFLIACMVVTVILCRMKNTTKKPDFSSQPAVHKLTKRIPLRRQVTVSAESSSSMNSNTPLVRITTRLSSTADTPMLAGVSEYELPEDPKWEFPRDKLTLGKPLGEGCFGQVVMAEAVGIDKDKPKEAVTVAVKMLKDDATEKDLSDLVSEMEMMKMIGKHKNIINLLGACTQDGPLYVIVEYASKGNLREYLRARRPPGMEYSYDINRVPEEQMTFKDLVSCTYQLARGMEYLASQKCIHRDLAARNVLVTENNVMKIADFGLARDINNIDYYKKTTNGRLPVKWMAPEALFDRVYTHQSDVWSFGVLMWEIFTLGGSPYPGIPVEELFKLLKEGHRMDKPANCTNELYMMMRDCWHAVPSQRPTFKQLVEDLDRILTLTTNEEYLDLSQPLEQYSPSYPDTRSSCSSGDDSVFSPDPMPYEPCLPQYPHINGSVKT
Test: biochemical
Where no end group is shown, it is not given here.
MEASURED ENDPOINT: pIC50
A value of pIC50 is the negative decimal logarithm of a concentration given in moles per litre.

Request: // query pIC50 value for entry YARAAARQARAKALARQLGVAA [MMI-0100]
Result: 3.76

###

Target: MAPKAP-K2 (h) (Homo sapiens, UniProt P49137)
Sequence (P49137 whole entry): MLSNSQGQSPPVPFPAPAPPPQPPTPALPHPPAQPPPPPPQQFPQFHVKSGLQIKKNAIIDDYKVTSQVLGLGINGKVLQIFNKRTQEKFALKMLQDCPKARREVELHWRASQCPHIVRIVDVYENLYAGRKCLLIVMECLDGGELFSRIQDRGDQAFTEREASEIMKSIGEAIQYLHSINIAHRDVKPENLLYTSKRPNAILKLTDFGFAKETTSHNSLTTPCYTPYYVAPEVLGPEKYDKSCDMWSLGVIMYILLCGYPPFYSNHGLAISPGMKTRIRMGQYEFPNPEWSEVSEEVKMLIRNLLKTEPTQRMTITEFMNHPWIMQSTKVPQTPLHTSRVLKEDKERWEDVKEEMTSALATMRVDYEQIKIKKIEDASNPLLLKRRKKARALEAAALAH
Experiment: Millipore radiometric kinase assay (IC50 Profiler Express / kinase profiling)
Format: biochemical
Where no end group is shown, it is not given here.
MEASURED ENDPOINT: pIC50
Note on units: pIC50 is unitless, being -log10 of a concentration expressed in mol/L.

Request: Param item = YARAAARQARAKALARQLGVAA [MMI-0100] ; retrieve measured pIC50.
Result: 4.92

###

Molecular target: MAPKAP-K3 (h) (Homo sapiens, UniProt Q16644)
Sequence (Q16644 whole entry): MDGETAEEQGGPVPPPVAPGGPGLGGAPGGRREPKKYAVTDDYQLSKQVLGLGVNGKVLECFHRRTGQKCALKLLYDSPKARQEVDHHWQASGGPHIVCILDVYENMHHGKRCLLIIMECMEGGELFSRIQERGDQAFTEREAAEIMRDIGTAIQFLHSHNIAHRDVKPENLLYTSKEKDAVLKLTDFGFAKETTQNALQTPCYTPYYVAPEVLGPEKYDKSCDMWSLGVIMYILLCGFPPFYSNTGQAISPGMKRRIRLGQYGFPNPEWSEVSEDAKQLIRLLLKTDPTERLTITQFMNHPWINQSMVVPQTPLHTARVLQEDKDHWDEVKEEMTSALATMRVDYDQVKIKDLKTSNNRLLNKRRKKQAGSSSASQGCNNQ
Test: Millipore radiometric kinase assay (IC50 Profiler Express / kinase profiling)
Type: biochemical
Where no end group is shown, it is not given here.
MEASURED ENDPOINT: IC50 (µM)
Please respond with the number in µM and leave the unit unwritten.

Request: Quick one: IC50 for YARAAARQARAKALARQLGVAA [MMI-0100] ?
Result: 15.8

###

Biological target: LOK (h) (Homo sapiens)
Sequence (O94804 whole entry): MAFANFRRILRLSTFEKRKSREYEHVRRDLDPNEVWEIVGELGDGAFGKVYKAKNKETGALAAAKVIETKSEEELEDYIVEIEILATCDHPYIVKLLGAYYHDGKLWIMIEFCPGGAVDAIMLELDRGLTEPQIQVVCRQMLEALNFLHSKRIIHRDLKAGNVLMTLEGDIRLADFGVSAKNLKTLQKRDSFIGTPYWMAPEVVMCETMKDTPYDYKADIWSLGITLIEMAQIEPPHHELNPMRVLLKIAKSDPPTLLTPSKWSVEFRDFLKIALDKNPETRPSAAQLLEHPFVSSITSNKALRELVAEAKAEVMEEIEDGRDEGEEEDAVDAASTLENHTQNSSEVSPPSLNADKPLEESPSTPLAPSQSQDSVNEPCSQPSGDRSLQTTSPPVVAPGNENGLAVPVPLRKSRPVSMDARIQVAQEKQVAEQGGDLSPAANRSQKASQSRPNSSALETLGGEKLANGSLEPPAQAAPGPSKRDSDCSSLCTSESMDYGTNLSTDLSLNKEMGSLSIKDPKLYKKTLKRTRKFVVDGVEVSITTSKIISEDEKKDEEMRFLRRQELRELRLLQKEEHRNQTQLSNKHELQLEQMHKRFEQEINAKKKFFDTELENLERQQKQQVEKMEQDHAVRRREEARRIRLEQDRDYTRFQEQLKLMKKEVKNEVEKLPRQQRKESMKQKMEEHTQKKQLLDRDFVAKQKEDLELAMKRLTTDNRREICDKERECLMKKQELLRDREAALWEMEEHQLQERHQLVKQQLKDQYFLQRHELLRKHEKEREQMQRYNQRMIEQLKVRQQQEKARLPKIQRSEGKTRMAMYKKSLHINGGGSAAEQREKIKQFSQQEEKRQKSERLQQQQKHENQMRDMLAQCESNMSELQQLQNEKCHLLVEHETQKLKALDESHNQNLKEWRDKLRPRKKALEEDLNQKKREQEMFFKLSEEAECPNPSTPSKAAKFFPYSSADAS
Assay: Millipore radiometric kinase assay (IC50 Profiler Express)
Format: biochemical
Where no end group is shown, it is not given here.
MEASURED ENDPOINT: IC50 (µM)
Reply numerically in µM, unit not repeated.

Request: Enter reported IC50 observed with LOK (h) (Homo sapiens) for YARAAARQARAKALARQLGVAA [MMI-0100]
Result: 47.6

###

Molecular target: Fes(h) (Homo sapiens, UniProt P07332)
Sequence (P07332 whole entry): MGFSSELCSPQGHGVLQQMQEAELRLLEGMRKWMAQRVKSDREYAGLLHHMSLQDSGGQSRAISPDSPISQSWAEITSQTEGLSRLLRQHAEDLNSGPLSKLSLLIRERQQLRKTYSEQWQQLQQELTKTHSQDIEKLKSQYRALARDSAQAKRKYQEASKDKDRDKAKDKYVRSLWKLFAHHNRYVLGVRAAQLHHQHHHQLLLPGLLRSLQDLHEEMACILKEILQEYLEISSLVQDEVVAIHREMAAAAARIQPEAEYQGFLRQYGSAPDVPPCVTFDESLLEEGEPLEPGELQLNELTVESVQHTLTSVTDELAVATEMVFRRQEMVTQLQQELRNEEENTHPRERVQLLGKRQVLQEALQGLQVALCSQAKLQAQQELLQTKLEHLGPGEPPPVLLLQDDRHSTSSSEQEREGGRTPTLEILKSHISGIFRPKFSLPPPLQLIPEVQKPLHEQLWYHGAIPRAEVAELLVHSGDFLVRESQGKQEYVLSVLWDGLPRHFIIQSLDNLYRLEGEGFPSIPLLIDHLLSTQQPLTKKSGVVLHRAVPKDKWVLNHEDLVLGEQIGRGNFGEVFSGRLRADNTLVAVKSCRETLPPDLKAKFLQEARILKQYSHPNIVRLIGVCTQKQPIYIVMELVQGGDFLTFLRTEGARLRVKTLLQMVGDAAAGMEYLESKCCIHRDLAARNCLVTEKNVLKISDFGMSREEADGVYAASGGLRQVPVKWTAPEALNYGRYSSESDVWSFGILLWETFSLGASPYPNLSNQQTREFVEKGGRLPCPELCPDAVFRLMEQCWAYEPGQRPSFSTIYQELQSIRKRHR
Assay: biochemical
Where no end group is shown, it is not given here.
MEASURED ENDPOINT: IC50 (µM)
Give your result in µM as a bare value.

Request: Which value of IC50 has been reported for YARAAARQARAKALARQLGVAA [MMI-0100] in the records?
Result: 174
